Values were extracted from patent US11925624B2.

Assay: Phase 1 Part A food effect (high-fat / low-fat breakfast) on single-dose pharmacokinetics
Type: in vivo, human
Settings: human, plasma, oral, 400 mg, Table 3, 4th section, 400 mg Compound I Fasted, n = 6; read-out: LS Means AUC0-t (Reference)
Source text: This study was a randomized, blinded, placebo-controlled, ascending-dose study to evaluate the safety, tolerability, and pharmacokinetic (PK) of single (Part A) and multiple (Part B) doses of Compound I in healthy subjects. […]
endpoint: AUC(0-t) (ng·h/mL)
One number for each entry, in ng·h/mL.

What AUC(0-t) value was documented for this molecule, Cn1cc(-c2cn(-c3ccc(OC(F)(F)F)cc3)c(=O)c3ncn(C)c23)cn1 [Compound I] ?
74500
